Value source: patent US20190177415A1

Overview of reported Kd across a group of binders:
- test-target: T1, C10orf54 (antigen of the KD values in Table 42) (human, UniProt Q9H7M9 33-311, limits assumed)
- T1 sequence: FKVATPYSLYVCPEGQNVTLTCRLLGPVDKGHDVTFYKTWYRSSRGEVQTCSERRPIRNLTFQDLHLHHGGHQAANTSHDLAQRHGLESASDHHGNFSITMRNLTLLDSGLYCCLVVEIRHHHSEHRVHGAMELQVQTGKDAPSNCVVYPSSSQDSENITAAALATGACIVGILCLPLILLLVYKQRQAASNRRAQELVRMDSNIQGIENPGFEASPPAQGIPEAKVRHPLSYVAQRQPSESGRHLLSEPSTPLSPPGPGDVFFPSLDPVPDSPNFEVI
- assay-comment: method and antigen form not stated
quantity-name: Kd

INSERT INTO results (binder, value) VALUES
  ('murine monoclonal antibody 46A (antibody, V domains shown, Mouse hybridoma antibody) VH: QVQLQQAGGELVRPGVSVKISCKGSGYTFTDYGMHWVKQSHAKSLEWIGIINTYYGDATYNQKFKGKATMTVDKSSSTAYMELARLTSEDSAIYYCARRAGTAMDYWGQGTSVTVSS VL: SIVMTQTPKFLLVSAGDRVTITCKASQSVSNDVAWYQQKPGQSPKLLIYYASNRYTGVPDRFTGSGYGTDFTFTISTVQAEDLAVYFCQQDYGSPRTFGGGTKLEIK', '1.88 nM'),
  ('murine monoclonal antibody 353A (antibody, V domains shown, Mouse hybridoma antibody) VH: EVKLLESGGGLVQPGGSLKLSCAASGFDFSRYWMNWVRQAPGKGLEWIGEINPDSSTINYTPSLKDKFIISRDNAKNTLYLQMSKVRYEDTALYYCARPGEIYYYGSYWFAYWGQGTLVTVSA VL: DIVLTQSPASLAVSLGQRATISCRASESVEYYGTSLMQWFQQKPGQPPKLLIYAASNVESRVPARFSGSGSGTDFSLNIHPVEEDDIAMYFCQQSRKDPWTFGGGTKLEIK', '2.9 nM'),
  ('murine monoclonal antibody 259A (antibody, V domains shown, Mouse hybridoma antibody) VH: EVQLQQSGPELVKPGASVKMSCKASGYTFTSYFMHWVKQKPGQGLEWIGYIYPYNDGTKYNEKFKGKATLTSDKSSSTAYMDLSSLTSEDSAVYYCARFDYDTLRYWGQGTTLTVSS VL: DVVLTQTPLSLPVNIGDQASISCKSTKSLLNSDGFTYLDWYLQKPGQSPQLLIYLISNRFSGVPDRFSGSGSGTDFTLKISRVEAEDLGVYYCFQSNYFPWTFGGGTKLEIK', '0.266 nM');
